The reader will find pIC50 measurements below, all made with Sialidase (Clostridium perfringens, UniProt P10481).
Sequence (P10481 whole entry): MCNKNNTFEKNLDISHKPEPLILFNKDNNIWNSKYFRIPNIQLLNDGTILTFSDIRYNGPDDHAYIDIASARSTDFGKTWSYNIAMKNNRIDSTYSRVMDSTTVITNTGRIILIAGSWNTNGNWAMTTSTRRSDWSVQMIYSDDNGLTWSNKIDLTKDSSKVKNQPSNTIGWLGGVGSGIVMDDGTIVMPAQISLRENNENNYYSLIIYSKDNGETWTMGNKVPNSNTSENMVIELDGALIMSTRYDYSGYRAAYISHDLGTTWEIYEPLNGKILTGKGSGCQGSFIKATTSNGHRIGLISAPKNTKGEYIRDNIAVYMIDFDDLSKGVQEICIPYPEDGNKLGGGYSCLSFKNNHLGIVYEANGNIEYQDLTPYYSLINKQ
pIC50: −log10 of the molar value.
recorded.metric: pIC50

> print(dat)
                                    compound  observed
 1  CC(C)=CCc1c(O)c(CC=C(C)C)c2occ(-c3ccc(O)c(O)c3)c(=O)c2c1O      5.97
 2  CC(C)=CCc1c2c(c(O)c3c(=O)c(-c4ccc(O)c(O)c4)coc13)C=CC(C)(C)O2 [AURICULASIN]      6.52
 3  CC(C)=CCc1c(-c2coc3cc(O)cc(O)c3c2=O)cc2c(c1O)OC(C)(C)C=C2      4.25
 4  C=CC(C)(C)C1=Cc2c(c(CC=C(C)C)c3occ(-c4ccc(O)c(O)c4)c(=O)c3c2O)OC1(C)C      5.79
 5  C=CC(C)(C)C1=Cc2c(c(CC=C(C)C)c3occ(-c4ccc(O)cc4)c(=O)c3c2O)OC1(C)C      5.10
 6  COc1cc(-c2coc3c(CC=C(C)C)c(O)c(CC=C(C)C)c(O)c3c2=O)ccc1O [FLEMINGSIN]      5.43
 7  CC(C)=CCc1cc(-c2coc3cc(O)cc(O)c3c2=O)c(CC=C(C)C)c(O)c1O      5.11
 8  O=c1c(-c2ccc(O)cc2)coc2cc(O)cc(O)c12 [GENISTEIN]      4.92
 9  CC(C)=CCc1c2c(c3occ(-c4ccc(O)cc4)c(=O)c3c1O)C=CC(C)(C)O2 [OSAJIN]      5.51
10  CC(C)=CCc1c(O)c(CC=C(C)C)c2occ(-c3ccc(O)cc3)c(=O)c2c1O      5.39
